Counter-ions that a name gives are not always drawn.
Recorded Endpoint: melting point

Prompt line: Look up melting point of Cc1c(C)n(CCCN(C)C)c2ncnc(NCCc3cccc(F)c3)c12 (as salt: salt) and report it.
Response line: 239 to 240.2 °C

Prompt line: Look up melting point of `COc1ccc(CCNc2ncnc3c2c(C)c(C)n3Cc2cccc(Cl)c2)cc1` and report it.
Response line: 214 to 216 °C

Prompt line: Look up melting point of Cc1c(C)n(CCCN(C)C)c2ncnc(NCC(O)c3ccccc3)c12 (centres unmarked) (as salt: salt) and report it.
Response line: 209 to 212.9 °C

Prompt line: Look up melting point of `COc1ccc(CCNc2ncnc3c2ccn3Cc2ccccc2)cc1` and report it.
Response line: 140 to 141 °C

Prompt line: Look up melting point of `Cc1c(C)n(Cc2cccc(Cl)c2)c2ncnc(NCCc3cccc(F)c3)c12` and report it.
Response line: 232 to 235 °C
